B1: ANKRD40 (parent)
chain: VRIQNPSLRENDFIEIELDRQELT

Variants of: B1
Test: protein stability index of a GFP-peptide fusion (GPS, HEK-293T) (PSI 1-6); higher = more stable;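 note: lentivirally expressed fusions sorted by FACS into six bins by GFP to DsRed ratio, PSI derived from sequencing read proportions per bin multiplied by bin number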
Settings: c terminus: a fixed tail appended
Assign a class from recorded protein stability index; defined classes: low band = under 2, middle band = from 2 up to 3, high band = 3 and over

Examples from the recorded data:
F13V :: high band
V1S :: high band
E10S :: middle band
R9T :: middle band

### Prompt Please let me know in which category the item R20I belongs.
### Response middle band

### Prompt Please let me know in which category the item E17M belongs.
### Response low band

### Prompt Please let me know in which category the item T24F belongs.
### Response low band

### Prompt Please let me know in which category the item D19V belongs.
### Response low band

### Prompt Please let me know in which category the item F13N belongs.
### Response high band

### Prompt Please let me know in which category the item E22V belongs.
### Response middle band
